system: Escherichia coli; test: Bactericidal activity against Escherichia coli MTCC 739 after 24 hrs by agar plating method; format: functional; conditions: MTCC 739, 24 h
Measurement name: MBC
Show the value, then the unit it is measured in.

Field: example entries. Status: answers known.
[
  {
    "Smiles code": "O=C(O)c1cn(C2CC2)c2cc(N3CCNCC3)c(F)cc2c1=O",
    "MBC": "0.58 µg/mL"
  },
  {
    "Smiles code": "Nc1nc(OCc2cn(-c3n[nH]c4nc(C(F)(F)F)ccc34)nn2)cc(C(F)(F)F)n1",
    "MBC": "7.8 µg/mL"
  },
  {
    "Smiles code": "CCOC(=O)Cn1nc(-n2cc(COc3cc(C(F)(F)F)nc(N)n3)nn2)c2ccc(C(F)(F)F)nc21",
    "MBC": "31.2 µg/mL"
  }
]

Consider the additional compound presented here.
Input line: Request - read-out MBC | tested on Escherichia coli | compound `CCCCCCCCCCn1nc(-n2cc(COc3cc(C(F)(F)F)nc(N)n3)nn2)c2ccc(C(F)(F)F)nc21`
Output line: 15.6 µg/mL

----------
test system: Staphylococcus aureus; test: Antimicrobial activity against Staphylococcus aureus MLS-16 MTCC 2940 assessed as inhibition of biofilm formation after 24 hrs by crystal violet staining-based assay; type: functional, organism-based; conditions: MLS-16 MTCC 2940, 24 h
Measurement name: IC50 (µg/mL)
Report as a plain number; the unit µg/mL is understood.

Field: example entries. Status: answers known.
[
  {
    "Smiles code": "Nc1nc(OCc2cn(-c3n[nH]c4nc(C(F)(F)F)ccc34)nn2)cc(C(F)(F)F)n1",
    "Units": "µg/mL",
    "IC50": 7.8
  },
  {
    "Smiles code": "CCCCCCCCCCn1nc(-n2cc(COc3cc(C(F)(F)F)nc(N)n3)nn2)c2ccc(C(F)(F)F)nc21",
    "Units": "µg/mL",
    "IC50": 3.9
  },
  {
    "Smiles code": "CCOC(=O)Cn1nc(-n2cc(COc3cc(C(F)(F)F)nc(N)n3)nn2)c2ccc(C(F)(F)F)nc21",
    "Units": "µg/mL",
    "IC50": 7.8
  }
]

Consider the additional compound presented here.
Input line: Recorded IC50 of `CC[C@H]1OC(=O)[C@H](C)[C@@H](O[C@H]2C[C@@](C)(OC)[C@@H](O)[C@H](C)O2)[C@H](C)[C@@H](O[C@@H]2O[C@H](C)C[C@H](N(C)C)[C@H]2O)[C@](C)(O)C[C@@H](C)C(=O)[C@H](C)[C@@H](O)[C@]1(C)O` , please.
Output line: 0.32

----------
Reported pIC50 values are given for each entry in this list.
tested on: HeLa; assay: Cytotoxicity against human HeLa cells after 24 hrs by MTT assay; assay type: functional, cell-based
Worth noting: pIC50 values are minus log10 of concentrations stated in mol/L.

[
  {
    "Smiles code": "CCOC(=O)Cn1nc(-n2cc(Cn3c(N)nc(C(F)(F)F)cc3=O)nn2)c2ccc(C(F)(F)F)nc21",
    "Test target": "HeLa",
    "Measurement name": "pIC50",
    "Readout value": 4.94
  }
]

Consider the additional compound presented here.
Input line: Recorded pIC50 of `CCCCCCCCCCn1nc(-n2cc(Cn3c(N)nc(C(F)(F)F)cc3=O)nn2)c2ccc(C(F)(F)F)nc21` , please.
Output line: 4.87

----------
tested on: HeLa; assay: Cytotoxicity against human HeLa cells after 24 hrs by MTT assay; assay type: functional, cell-based
Measurement name: IC50 (µM)
Report as a plain number; the unit µM is understood.

Field: example entries. Status: answers known.
[
  {
    "Smiles code": "Nc1nc(C(F)(F)F)cc(=O)n1Cc1cn(-c2n[nH]c3nc(C(F)(F)F)ccc23)nn1",
    "Test target": "HeLa",
    "Measurement name": "IC50",
    "Units": "µM",
    "Readout value": 16.1
  },
  {
    "Smiles code": "C=CCn1nc(-n2cc(Cn3c(N)nc(C(F)(F)F)cc3=O)nn2)c2ccc(C(F)(F)F)nc21",
    "Test target": "HeLa",
    "Measurement name": "IC50",
    "Units": "µM",
    "Readout value": 18.2
  }
]

Input line: Recorded IC50 of `CCCCCCCCn1nc(-n2cc(Cn3c(N)nc(C(F)(F)F)cc3=O)nn2)c2ccc(C(F)(F)F)nc21` , please.
Output line: 9.4

Input line: Recorded IC50 of `Nc1n[nH]c2nc(C(F)(F)F)ccc12` , please.
Output line: 60.2

Input line: Recorded IC50 of `C=CCn1nc(-n2cc(COc3cc(C(F)(F)F)nc(N)n3)nn2)c2ccc(C(F)(F)F)nc21` , please.
Output line: 18.4

Input line: Recorded IC50 of `CCCCCCCCn1nc(-n2cc(COc3cc(C(F)(F)F)nc(N)n3)nn2)c2ccc(C(F)(F)F)nc21` , please.
Output line: 22.7

Input line: Recorded IC50 of `C#CCn1nc(-n2cc(Cn3c(N)nc(C(F)(F)F)cc3=O)nn2)c2ccc(C(F)(F)F)nc21` , please.
Output line: 10.2

Input line: Recorded IC50 of `CCn1nc(-n2cc(Cn3c(N)nc(C(F)(F)F)cc3=O)nn2)c2ccc(C(F)(F)F)nc21` , please.
Output line: 62.3

----------
Reported MBC values are given for each entry in this list.
system: Pseudomonas aeruginosa; experiment: Bactericidal activity against Pseudomonas aeruginosa MTCC 2453 after 24 hrs by agar plating method; format: functional; conditions: MTCC 2453, 24 h
Show the value, then the unit it is measured in.

[
  {
    "Compound": "O=C(O)c1cn(C2CC2)c2cc(N3CCNCC3)c(F)cc2c1=O [CIPROFLOXACIN]",
    "Test target": "Pseudomonas aeruginosa",
    "Readout value": "0.58 µg/mL"
  },
  {
    "Compound": "Nc1nc(OCc2cn(-c3n[nH]c4nc(C(F)(F)F)ccc34)nn2)cc(C(F)(F)F)n1",
    "Test target": "Pseudomonas aeruginosa",
    "Readout value": "15.6 µg/mL"
  },
  {
    "Compound": "CCOC(=O)Cn1nc(-n2cc(COc3cc(C(F)(F)F)nc(N)n3)nn2)c2ccc(C(F)(F)F)nc21",
    "Test target": "Pseudomonas aeruginosa",
    "Readout value": "15.6 µg/mL"
  }
]

Input line: Recorded MBC of `CCCCCCCCCCn1nc(-n2cc(COc3cc(C(F)(F)F)nc(N)n3)nn2)c2ccc(C(F)(F)F)nc21` , please.
Output line: 15.6 µg/mL

----------
Reported IC50 values are given for each entry in this list.
test system: Pseudomonas aeruginosa; experiment: Antimicrobial activity against Pseudomonas aeruginosa MTCC 2453 assessed as inhibition of biofilm formation after 24 hrs by crystal violet staining-based assay; assay type: functional, organism-based; conditions: MTCC 2453, 24 h
Report as a plain number; the unit µg/mL is understood.

Field: example entries. Status: answers known.
[
  {
    "Smiles code": "Nc1nc(OCc2cn(-c3n[nH]c4nc(C(F)(F)F)ccc34)nn2)cc(C(F)(F)F)n1",
    "IC50, µg/mL": 3.9
  },
  {
    "Smiles code": "CC[C@H]1OC(=O)[C@H](C)[C@@H](O[C@H]2C[C@@](C)(OC)[C@@H](O)[C@H](C)O2)[C@H](C)[C@@H](O[C@@H]2O[C@H](C)C[C@H](N(C)C)[C@H]2O)[C@](C)(O)C[C@@H](C)C(=O)[C@H](C)[C@@H](O)[C@]1(C)O",
    "IC50, µg/mL": 0.26
  },
  {
    "Smiles code": "CCCCCCCCCCn1nc(-n2cc(COc3cc(C(F)(F)F)nc(N)n3)nn2)c2ccc(C(F)(F)F)nc21",
    "IC50, µg/mL": 3.9
  }
]

Consider the additional molecule presented here.
Input line: Recorded IC50 of `CCOC(=O)Cn1nc(-n2cc(COc3cc(C(F)(F)F)nc(N)n3)nn2)c2ccc(C(F)(F)F)nc21` , please.
Output line: 15.6

----------
Reported IC50 values are given for each entry in this list.
system: Raoultella planticola; assay: Antimicrobial activity against Klebsiella planticola MTCC 530 assessed as inhibition of biofilm formation after 24 hrs by crystal violet staining-based assay; assay type: functional, organism-based; settings: MTCC 530, 24 h
Report as a plain number; the unit µg/mL is understood.

[
  {
    "Smiles code": "Nc1nc(OCc2cn(-c3n[nH]c4nc(C(F)(F)F)ccc34)nn2)cc(C(F)(F)F)n1",
    "Test target": "Raoultella planticola",
    "Measurement name": "IC50",
    "Readout value": 7.8
  },
  {
    "Smiles code": "CCOC(=O)Cn1nc(-n2cc(COc3cc(C(F)(F)F)nc(N)n3)nn2)c2ccc(C(F)(F)F)nc21",
    "Test target": "Raoultella planticola",
    "Measurement name": "IC50",
    "Readout value": 3.9
  }
]

Input line: Request - read-out IC50 | tested on Raoultella planticola | compound `CCCCCCCCCCn1nc(-n2cc(COc3cc(C(F)(F)F)nc(N)n3)nn2)c2ccc(C(F)(F)F)nc21`
Output line: 3.9

Input line: Request - read-out IC50 | tested on Raoultella planticola | compound `CC[C@H]1OC(=O)[C@H](C)[C@@H](O[C@H]2C[C@@](C)(OC)[C@@H](O)[C@H](C)O2)[C@H](C)[C@@H](O[C@@H]2O[C@H](C)C[C@H](N(C)C)[C@H]2O)[C@](C)(O)C[C@@H](C)C(=O)[C@H](C)[C@@H](O)[C@]1(C)O`
Output line: 0.21
